Numbers sourced from patent US8129427B2.

- target-or-test-system: recombinant Nav 1.3 channels (Homo sapiens, UniProt Q9NY46)
- Sequence (Q9NY46 whole entry): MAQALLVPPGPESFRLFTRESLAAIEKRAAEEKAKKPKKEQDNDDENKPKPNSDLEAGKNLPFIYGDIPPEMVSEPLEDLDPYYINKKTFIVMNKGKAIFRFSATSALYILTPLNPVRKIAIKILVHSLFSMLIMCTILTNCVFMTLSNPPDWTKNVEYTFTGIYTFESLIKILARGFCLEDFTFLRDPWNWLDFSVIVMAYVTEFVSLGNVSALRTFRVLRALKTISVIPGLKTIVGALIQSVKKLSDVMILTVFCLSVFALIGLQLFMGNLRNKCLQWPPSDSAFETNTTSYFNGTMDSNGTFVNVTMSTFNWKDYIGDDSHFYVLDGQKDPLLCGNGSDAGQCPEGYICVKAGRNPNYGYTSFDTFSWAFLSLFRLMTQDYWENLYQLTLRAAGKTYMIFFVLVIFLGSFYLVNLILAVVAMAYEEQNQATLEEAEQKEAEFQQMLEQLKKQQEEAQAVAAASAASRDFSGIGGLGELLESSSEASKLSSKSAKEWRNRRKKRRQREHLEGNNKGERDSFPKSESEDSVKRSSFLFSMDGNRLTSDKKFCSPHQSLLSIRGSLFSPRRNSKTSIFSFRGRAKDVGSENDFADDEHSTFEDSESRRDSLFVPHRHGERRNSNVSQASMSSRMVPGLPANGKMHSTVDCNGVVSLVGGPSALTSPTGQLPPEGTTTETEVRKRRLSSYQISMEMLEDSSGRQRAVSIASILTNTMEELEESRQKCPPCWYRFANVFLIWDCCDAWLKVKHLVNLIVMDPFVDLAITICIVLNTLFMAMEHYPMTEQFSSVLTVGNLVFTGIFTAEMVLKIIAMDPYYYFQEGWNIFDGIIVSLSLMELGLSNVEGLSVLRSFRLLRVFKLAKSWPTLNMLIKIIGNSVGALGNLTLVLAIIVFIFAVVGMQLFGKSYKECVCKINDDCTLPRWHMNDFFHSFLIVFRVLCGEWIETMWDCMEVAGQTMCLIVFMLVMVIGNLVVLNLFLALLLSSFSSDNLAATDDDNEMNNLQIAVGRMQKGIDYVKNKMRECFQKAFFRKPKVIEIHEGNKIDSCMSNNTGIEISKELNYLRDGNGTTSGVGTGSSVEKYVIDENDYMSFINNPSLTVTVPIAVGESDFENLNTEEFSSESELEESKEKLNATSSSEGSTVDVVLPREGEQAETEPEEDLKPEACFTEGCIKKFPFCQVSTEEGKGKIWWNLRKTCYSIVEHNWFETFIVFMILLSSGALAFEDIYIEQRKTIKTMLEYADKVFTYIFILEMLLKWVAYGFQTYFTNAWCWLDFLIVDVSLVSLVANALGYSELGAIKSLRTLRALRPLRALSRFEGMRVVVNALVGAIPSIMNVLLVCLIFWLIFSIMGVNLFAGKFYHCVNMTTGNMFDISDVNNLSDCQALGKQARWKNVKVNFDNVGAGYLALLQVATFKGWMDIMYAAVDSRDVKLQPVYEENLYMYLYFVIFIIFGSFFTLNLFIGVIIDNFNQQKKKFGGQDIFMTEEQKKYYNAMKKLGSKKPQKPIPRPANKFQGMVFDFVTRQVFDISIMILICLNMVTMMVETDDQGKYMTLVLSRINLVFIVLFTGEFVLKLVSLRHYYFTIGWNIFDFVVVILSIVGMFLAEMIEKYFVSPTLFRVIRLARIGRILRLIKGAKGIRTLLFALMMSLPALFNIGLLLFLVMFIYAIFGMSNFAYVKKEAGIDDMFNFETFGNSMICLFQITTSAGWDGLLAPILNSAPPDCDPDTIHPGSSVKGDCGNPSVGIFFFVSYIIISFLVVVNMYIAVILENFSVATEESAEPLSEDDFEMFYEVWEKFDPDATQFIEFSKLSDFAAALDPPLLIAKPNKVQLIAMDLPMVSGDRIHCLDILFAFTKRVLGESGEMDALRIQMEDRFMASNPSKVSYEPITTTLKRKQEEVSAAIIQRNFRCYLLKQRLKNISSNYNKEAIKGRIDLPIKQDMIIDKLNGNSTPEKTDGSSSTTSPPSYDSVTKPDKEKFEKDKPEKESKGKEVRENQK
- protocol: Patch clamp studies of sodium currents inhibition in HEK293 cells
- run-parameters: tonic block, preconditioning −50 mV (half maximal steady-state inactivated condition); read-out: IC50 (Vhalf)
Where a name gives a salt, the structure may show the parent alone.
Task for the reader: assign each of the following compounds its reported IC50.
Hey, just the number and the unit after it is fine.

Please fill in: IC50 reported for C[C@H](NCc1ccc(OCc2ccccc2F)cc1)C(N)=O [ralfinamide, reference compound] = 15 µM

The compound listed as CNC(=O)CN(CCc1ccc(OCc2cccc(F)c2)c(OC)c1)CC1CC1 [Example 8, hydrochloride] shows IC50 equal to 9.8 µM

Input CCCCOc1cccc(CCN(CC(=O)N(C)C)CC2CCOC2)c1.Cl (racemic) [Example 96, hydrochloride] . Output IC50: 3.1 µM

---

- System: TTXs sodium channels
- protocol: TTXs-sodium channel influx assay (membrane potential fluorescence)
- Format: cell-based, rat
- run-parameters: ND7/23 cells, veratridine 100 μM
Counter-ions that a name gives are not always drawn.
reported-metric: pIC50
The value called pIC50 is obtained by taking minus log10 of the concentration in mol/L.

Entry CNC(=O)CN(CCc1ccc(OCc2cccc(F)c2)c(OC)c1)Cc1ccc(OC)nc1 [Example 14] , tested on TTXs sodium channels, has a reported pIC50 of 5.54

Param item: CNC(=O)CN(CCc1ccc(OCc2cccc(F)c2)c(OC)c1)CC1CC1 [Example 8, hydrochloride] ; param system: TTXs sodium channels; output pIC50: 5.46

Readout pIC50 for COc1cc(CCNC(C(=O)N2CCOCC2)c2ccccc2)ccc1OCc1cccc(F)c1 (stereo not drawn) [Example 33, hydrochloride] , test system TTXs sodium channels, was 5.68

Form field, pIC50 with TTXs sodium channels, item CCCCOc1cccc(CCN(CC(=O)N(C)C)CC2CCOC2)c1.Cl (racemic) [Example 96, hydrochloride] : 5.70

Per the reported TTXs sodium channels data, CCNC(=O)CN(CCc1ccc(OCc2cccc(F)c2)c(OC)c1)Cc1ccccc1 [Example 37, hydrochloride] has pIC50 of 5.92

TTXs sodium channels data for C[C@H](NCc1ccc(OCc2ccccc2F)cc1)C(N)=O [ralfinamide, reference compound] ; its pIC50: 5.02

---

- target-or-test-system: N-type calcium channels (Homo sapiens)
- protocol: N-type calcium channel influx assay (fluorescence)
- Type: cell-based
- run-parameters: differentiated IMR32 cells, nifedipine 1 μM, 100 mM KCl depolarization; read-out: IC50
Structures can show the parent of a compound that is named as a salt.
Please provide measured IC50 for the entries that follow.

Sample COc1cc(CCN(CC(=O)NCC(C)(C)N)Cc2ccccc2)ccc1OCc1cccc(F)c1 [Example 42, hydrochloride] ; IC50 observed: 2600 nM

For record CNC(=O)CN(CCc1ccc(OCc2cccc(F)c2)c(OC)c1)CC1CC1 [Example 8, hydrochloride] the listed IC50 is 2100 nM

The compound identified as COc1cc(CCN(CC(=O)N2CCCC2)Cc2ccccc2)ccc1OCc1cccc(F)c1 [Example 40, hydrochloride] registered its IC50 at 2200 nM

Lab note: C[C@H](NCc1ccc(OCc2ccccc2F)cc1)C(N)=O [ralfinamide, reference compound] gave IC50 of 23000 nM

For reference, reported IC50 for COc1cc(CCN(CC(=O)NCCN(C)C)Cc2ccccc2)ccc1OCc1cccc(F)c1 [Example 43, hydrochloride] stands at 1900 nM

Note to self: IC50 recorded for CN(C)CCNC(=O)CN(CCc1cccc(OCc2cccc(F)c2)c1)Cc1ccco1 [Example 71, dihydrochloride] was 1900 nM

Data point: CNC(=O)CN(CCc1ccc(OCc2cccc(F)c2)c(OC)c1)CC(C)C [Example 2, hydrochloride] ; IC50 = 4800 nM

The reported IC50 of the compound CC(C)(N)CNC(=O)CN(CCc1cccc(OCc2cccc(F)c2)c1)Cc1ccco1 [Example 72, dihydrochloride] was 2600 nM

The reported value for COc1cc(CCNC(C(=O)N2CCOCC2)c2ccccc2)ccc1OCc1cccc(F)c1 (stereo not drawn) [Example 33, hydrochloride] in terms of IC50 is 6000 nM
